# target_of_assay: human c-Met-Fc (c-Met ectodomain, IgG1-Fc fusion) (Homo sapiens, UniProt P08581 25-932)
# Sequence (P08581 25-932): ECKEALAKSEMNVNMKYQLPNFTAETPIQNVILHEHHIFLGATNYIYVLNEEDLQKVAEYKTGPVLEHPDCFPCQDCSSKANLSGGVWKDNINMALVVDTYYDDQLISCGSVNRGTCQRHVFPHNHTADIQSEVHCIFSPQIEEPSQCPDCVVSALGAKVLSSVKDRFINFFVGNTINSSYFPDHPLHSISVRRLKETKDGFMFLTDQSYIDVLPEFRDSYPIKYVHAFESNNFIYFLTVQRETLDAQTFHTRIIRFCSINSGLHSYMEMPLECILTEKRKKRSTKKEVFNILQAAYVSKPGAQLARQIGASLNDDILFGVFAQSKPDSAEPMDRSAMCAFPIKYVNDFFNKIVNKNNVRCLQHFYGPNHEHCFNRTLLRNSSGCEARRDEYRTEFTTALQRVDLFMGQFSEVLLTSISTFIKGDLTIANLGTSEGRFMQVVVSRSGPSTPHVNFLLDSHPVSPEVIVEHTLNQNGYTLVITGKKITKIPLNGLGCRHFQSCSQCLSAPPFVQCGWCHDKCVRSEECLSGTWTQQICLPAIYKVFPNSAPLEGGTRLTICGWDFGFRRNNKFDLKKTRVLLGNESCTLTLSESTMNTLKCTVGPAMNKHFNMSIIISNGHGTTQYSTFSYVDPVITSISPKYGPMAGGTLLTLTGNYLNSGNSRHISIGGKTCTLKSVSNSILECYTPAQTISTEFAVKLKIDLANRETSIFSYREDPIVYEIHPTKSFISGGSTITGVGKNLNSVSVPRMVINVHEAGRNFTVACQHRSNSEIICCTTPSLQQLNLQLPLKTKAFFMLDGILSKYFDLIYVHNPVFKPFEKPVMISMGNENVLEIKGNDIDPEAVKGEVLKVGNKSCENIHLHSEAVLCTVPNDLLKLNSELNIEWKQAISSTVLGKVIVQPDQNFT
# method_summary: filter binding (dotblot); Dotblot: nitrocellulose filter, 37 C (competition, 30 min); BLI: DPBS, 37 C, Protein A tips, 1:1 fit; ELISA: PBS/1% BSA; flow cytometry: PBS/1% BSA, 4 C, 30 min
# details: protein: recombinant; tags: Fc (IgG1); chain copies: 2; label: 32P (dotblot)
endpoint_name: Kd (nM)
Numbers only, in nM.

# get_value(readout='Kd', item= CLN3-T (SL1) (ssDNA) DNA: GAAAAGTTATCAGGCTGGATGGTAGCTCGGTCGGGGTGGGTGGGTTGGCAAGTCTGATT )
0.1
